Molecular target: Recombinant STAT3 protein (STAT3(G127-I722)) (Homo sapiens, UniProt P40763)
Construct: STAT3(G127-I722)
Sequence (P40763 127-722, species assumed): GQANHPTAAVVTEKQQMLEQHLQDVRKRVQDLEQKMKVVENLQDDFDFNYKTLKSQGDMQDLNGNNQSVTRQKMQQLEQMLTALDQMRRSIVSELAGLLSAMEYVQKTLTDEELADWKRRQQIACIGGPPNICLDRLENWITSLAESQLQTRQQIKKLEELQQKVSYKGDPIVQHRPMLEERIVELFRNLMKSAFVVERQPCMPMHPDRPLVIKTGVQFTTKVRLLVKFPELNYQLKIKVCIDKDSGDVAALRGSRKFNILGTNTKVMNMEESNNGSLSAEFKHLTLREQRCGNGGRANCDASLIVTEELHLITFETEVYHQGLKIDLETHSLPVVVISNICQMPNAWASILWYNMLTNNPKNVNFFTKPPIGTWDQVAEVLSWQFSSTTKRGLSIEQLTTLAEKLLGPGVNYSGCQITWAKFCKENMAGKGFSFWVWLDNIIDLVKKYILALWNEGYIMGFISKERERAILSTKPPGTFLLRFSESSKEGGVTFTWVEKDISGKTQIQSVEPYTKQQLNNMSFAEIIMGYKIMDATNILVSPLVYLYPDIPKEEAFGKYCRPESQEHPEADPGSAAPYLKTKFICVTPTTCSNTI
Test: STAT3 Fluorescence Polarization (FP) Assay
Conditions: STAT3(G127-I722) 25 nM, probe 5-FAM-GpYLPQTV-NH2 2 nM, 45-minute incubation
Consider the following molecules; for each one, report its IC50.

System Recombinant STAT3 protein (STAT3(G127-I722)) (Homo sapiens, UniProt P40763). Read-out IC50. Item "O=C(N[C@H]1C[C@@H]2C[C@@H]2C[C@H]2CC[C@@H](C(=O)N3CC(c4nn[nH]n4)C3)N2C1=O)c1cc2cc(C(F)(F)P(=O)(O)O)ccc2s1" . Report value.
100 to 1000 nM

System Recombinant STAT3 protein (STAT3(G127-I722)) (Homo sapiens, UniProt P40763). Read-out IC50. Item "O=C(N[C@H]1C[C@H]2C[C@H]2C[C@H]2CC[C@@H](C(=O)N3CC(c4ccccc4)C3)N2C1=O)c1cc2cc(C(F)(F)P(=O)(O)O)ccc2s1" . Report value.
< 100 nM

System Recombinant STAT3 protein (STAT3(G127-I722)) (Homo sapiens, UniProt P40763). Read-out IC50. Item CCc1ccncc1C1CN(C(=O)[C@@H]2CC[C@@H]3C[C@@H]4C[C@@H]4C[C@H](NC(=O)c4cc5cc([C@H](F)P(=O)(O)O)ccc5s4)C(=O)N32)C1 (single isomer, unassigned) . Report value.
< 100 nM

System Recombinant STAT3 protein (STAT3(G127-I722)) (Homo sapiens, UniProt P40763). Read-out IC50. Item "Cc1cccc(C2CN(C(=O)[C@@H]3CC[C@@H]4C[C@@H]5C[C@@H]5C[C@H](NC(=O)c5cc6cc(C(F)(F)P(=O)(O)O)ccc6s5)C(=O)N43)C2)c1" . Report value.
< 100 nM
